Molecular target: T1, cynomolgus CD3 on HSC-F cells (cynomolgus, UniProt Q95LI5 22-198)
T1 construct: whole, on cells; also called Cyno HSC-F; cynomolgus HSC-F cells
T1 sequence (Q95LI5 22-198): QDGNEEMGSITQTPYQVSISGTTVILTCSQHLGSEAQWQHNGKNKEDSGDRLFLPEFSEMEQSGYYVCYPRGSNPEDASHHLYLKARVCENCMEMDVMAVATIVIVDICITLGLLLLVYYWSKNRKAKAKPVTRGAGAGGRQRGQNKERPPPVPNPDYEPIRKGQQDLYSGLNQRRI
Assay: flow cytometry, yeast-produced IgG 100 nM on HSC-F cells, pH 6.0
Measured NCB values are reported for all entries that follow.
The response must contain the number and no unit.

Binder	Measurement type	Reported result
ADI-79848 (Antibody No. 9), human IgG1 (antibody, V domains shown, Tested as yeast-produced aglycosylated human IgG1) VH: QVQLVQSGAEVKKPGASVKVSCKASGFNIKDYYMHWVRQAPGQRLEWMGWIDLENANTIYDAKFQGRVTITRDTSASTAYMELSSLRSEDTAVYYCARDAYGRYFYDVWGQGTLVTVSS VL: DIVMTQSPDSLAVSLGERATINCKSSQSLLNARTGHNYLAWYQQKPGQPPKLLIYWASTRESGVPDRFSGSGSGTDFTLTISSLQAEDVAVYYCKQSYSRRTFGGGTKVEIK	NCB	550
ADI-48587 (Antibody No. 2), human IgG1 (antibody, V domains shown, Tested as human IgG1 (yeast-produced aglycosylated, or CHO-produced); also called Ab No. 2; parent pH-dependent antibody) VH: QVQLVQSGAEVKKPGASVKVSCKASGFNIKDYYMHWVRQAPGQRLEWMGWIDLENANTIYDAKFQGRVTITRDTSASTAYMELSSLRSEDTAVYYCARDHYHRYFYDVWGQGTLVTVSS VL: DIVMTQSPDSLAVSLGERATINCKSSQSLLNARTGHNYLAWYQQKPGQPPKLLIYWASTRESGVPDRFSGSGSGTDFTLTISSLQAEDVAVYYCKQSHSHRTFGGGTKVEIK	NCB	437

Please turn your attention to the following entry.
Field NCB (entry ADI-26906 (Antibody No. 1), human IgG1 (antibody, V domains shown, Non-pH-dependent parent; Tested as human IgG1 (yeast-produced aglycosylated, or CHO-produced); also called Ab No. 1) VH: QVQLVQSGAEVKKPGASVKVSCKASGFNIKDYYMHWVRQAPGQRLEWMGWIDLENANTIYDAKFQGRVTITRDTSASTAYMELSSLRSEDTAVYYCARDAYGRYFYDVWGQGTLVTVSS VL: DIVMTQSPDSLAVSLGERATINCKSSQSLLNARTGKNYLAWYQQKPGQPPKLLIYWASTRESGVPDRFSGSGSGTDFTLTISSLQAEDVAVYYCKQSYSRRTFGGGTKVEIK ) reads 560
